Origin of measurements: ChEMBL document CHEMBL1240334

- TGT: Phosphate system positive regulatory protein PHO81 (Saccharomyces cerevisiae S288c)
- PROTOCOL SUMMARY: Inhibition of Saccharomyces cerevisiae Pho81-MD-dependent Pho80-Pho85 activity after 10 mins
PROPERTY MEASURED: IC50

Request: What value of measured IC50 is listed for O=P(O)(O)O[C@H]1[C@@H](OP(=O)(O)O)[C@@H](OP(=O)(O)O)[C@H](OP(=O)(O)OP(=O)(O)O)[C@@H](OP(=O)(O)O)[C@@H]1OP(=O)(O)O ?
Result: 23 µM

* * *

- TGT: Phosphate system positive regulatory protein PHO81 (Saccharomyces cerevisiae S288c, UniProt P17442)
- Sequence (P17442 whole entry): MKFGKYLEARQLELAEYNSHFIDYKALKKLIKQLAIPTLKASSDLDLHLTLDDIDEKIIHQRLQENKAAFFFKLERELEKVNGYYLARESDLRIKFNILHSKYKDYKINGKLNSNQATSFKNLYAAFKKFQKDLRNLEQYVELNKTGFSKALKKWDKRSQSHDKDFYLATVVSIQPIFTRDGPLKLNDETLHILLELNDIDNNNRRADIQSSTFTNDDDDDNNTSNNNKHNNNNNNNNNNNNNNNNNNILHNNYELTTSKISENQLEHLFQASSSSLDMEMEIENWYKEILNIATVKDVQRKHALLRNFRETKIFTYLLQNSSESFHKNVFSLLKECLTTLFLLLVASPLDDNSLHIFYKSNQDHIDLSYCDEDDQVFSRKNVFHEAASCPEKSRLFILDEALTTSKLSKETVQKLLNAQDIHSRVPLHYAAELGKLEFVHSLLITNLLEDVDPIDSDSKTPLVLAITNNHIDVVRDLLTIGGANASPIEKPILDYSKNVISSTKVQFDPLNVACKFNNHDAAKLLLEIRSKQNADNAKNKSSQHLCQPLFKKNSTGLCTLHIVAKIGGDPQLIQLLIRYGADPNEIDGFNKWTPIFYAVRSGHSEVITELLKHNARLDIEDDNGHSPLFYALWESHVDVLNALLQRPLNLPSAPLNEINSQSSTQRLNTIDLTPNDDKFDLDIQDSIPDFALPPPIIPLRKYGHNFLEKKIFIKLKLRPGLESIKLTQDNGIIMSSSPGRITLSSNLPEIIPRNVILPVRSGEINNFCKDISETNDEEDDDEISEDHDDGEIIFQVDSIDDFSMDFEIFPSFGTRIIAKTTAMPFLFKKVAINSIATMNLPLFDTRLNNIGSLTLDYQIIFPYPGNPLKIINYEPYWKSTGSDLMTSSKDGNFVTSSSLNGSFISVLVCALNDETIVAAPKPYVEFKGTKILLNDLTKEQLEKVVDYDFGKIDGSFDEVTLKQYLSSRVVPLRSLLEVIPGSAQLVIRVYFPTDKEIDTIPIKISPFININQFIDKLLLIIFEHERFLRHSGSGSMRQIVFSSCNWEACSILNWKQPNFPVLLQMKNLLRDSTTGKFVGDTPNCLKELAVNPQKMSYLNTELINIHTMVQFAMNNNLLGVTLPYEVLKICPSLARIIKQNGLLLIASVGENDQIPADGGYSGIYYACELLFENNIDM
- PROTOCOL SUMMARY: Inhibition of Saccharomyces cerevisiae Pho81-MD-MD dependent Pho80-Pho85 activity after 120 mins
PROPERTY MEASURED: IC50

Request: What does the record list as IC50 for O=P(O)(O)O[C@H]1[C@@H](OP(=O)(O)O)[C@@H](OP(=O)(O)O)[C@H](OP(=O)(O)OP(=O)(O)O)[C@@H](OP(=O)(O)O)[C@@H]1OP(=O)(O)O ?
Result: 22 µM
